System: CD2F1 mice, L1210 leukemia ip, survival T/C
test: NCI In Vivo Anticancer Drug Screen. Data for tumor model L1210 Leukemia (intraperitoneal) in CD2F1 (CDF1) mice
condition info: endpoint: mean survival time; dose: 200.0 mg/kg/injection; schedule: Q01DX005 (ip); vehicle: water; higher = longer survival
Toxic doses and inconclusive results are not listed.
Please go through the items and note down their T/C.

Some solved cases for reference:
molecule: CSc1nc(N)c2c(C(N)=O)cc(=O)n(C3OC(CO)C(O)C3O)c2n1 (centres undefined)
T/C: 101 % of control
//
molecule: NC(=O)c1n[nH]c(C2CC(O)C(CO)O2)n1 (centres undefined)
T/C: 94 % of control
//
molecule: CCSC(C(O)C(O)C(O)C(O)CO)n1cnc2c(=S)nc[nH]c21 (centres undefined)
T/C: 96 % of control

QUERY: Query T/C for O=C(Sc1cn(C2CC(O)C(CO)O2)c(=O)[nH]c1=O)c1ccc(N(CCCl)CCCl)cc1 (centres undefined)
RESULT: 120 % of control

Measured values drawn from PubChem BioAssay AID256 for this set.
